Numbers sourced from paper PMC5829263.

target: recombinant human arginase 2 (Homo sapiens); test: Arginase 2 inhibition, UPLC-MS measurement of ARG to ORN conversion in HEK293T cell lysate; conditions: read-out: % of control activity at the corresponding [Inhibitor] ± SE, arginase 2; ARG 2 mM; inhibitor 100 µM; mean of two experiments;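 also: HEK293T lysate carrying arginase 2 at 0.1 mg/mL in 0.05 M phosphate buffer pH 7.4, inhibitor preincubated with enzyme 5 min before ARG addition started the reaction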
Sequence (P78540 23-354): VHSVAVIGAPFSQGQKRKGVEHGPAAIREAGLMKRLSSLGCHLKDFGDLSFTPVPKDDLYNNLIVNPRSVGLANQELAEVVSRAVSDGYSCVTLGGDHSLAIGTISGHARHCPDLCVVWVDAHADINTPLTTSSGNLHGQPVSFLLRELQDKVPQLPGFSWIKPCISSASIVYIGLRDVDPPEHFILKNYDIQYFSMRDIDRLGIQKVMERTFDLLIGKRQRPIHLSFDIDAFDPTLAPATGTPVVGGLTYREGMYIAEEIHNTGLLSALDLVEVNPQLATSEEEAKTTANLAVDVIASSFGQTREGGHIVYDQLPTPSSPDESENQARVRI
Readout Name: remaining activity at 100 µM (%)

O=C(O)[C@@H]1CCCN1 96
[H]/N=C(/NC)NCCC[C@H](N)C(=O)O 104
NCCCC[C@H](N)C(=O)O 84
NCCCCN=C(N)N 103

----------
target: recombinant human arginase 1 (Homo sapiens, UniProt P05089); test: Arginase 1 inhibition, UPLC-MS measurement of ARG to ORN conversion in HEK293T cell lysate; conditions: read-out: % of control activity at the corresponding [Inhibitor] ± SE, arginase 1; ARG 3 mM; inhibitor 10 µM; mean of two experiments;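 also: arginase 1–expressing HEK293T lysate at 0.05 mg/mL in pH 7.4 phosphate buffer, inhibitor preincubated 5 min with enzyme, then reaction started by adding ARG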
Sequence (P05089 whole entry): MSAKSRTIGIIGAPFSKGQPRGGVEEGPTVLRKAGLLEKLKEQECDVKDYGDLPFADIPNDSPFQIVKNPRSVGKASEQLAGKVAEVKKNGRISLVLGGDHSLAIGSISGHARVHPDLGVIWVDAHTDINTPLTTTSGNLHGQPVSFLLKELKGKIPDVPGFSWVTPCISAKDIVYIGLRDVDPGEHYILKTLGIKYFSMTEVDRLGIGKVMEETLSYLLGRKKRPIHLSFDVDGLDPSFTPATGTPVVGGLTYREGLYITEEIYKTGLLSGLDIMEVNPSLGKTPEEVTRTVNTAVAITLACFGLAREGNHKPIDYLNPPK
Readout Name: remaining activity at 10 µM (%)

NCCCC[C@H](N)C(=O)O 103
[H]/N=C(/NC)NCCC[C@H](N)C(=O)O 95
O=C(O)[C@@H]1CCCN1 113
NCCCCN=C(N)N 100
